Cited source for all entries: patent US20260265238A1

# Experimental System: SMARCA4-HiBiT HeLa cells (protein which is expressed from the SMARCA4 gene) (Homo sapiens, UniProt P51532)
# Construct: protein which is expressed from the SMARCA2 and SMARCA4 genes; host or cells: HeLa (SMARCA4-HiBiT engineered line)
# Sequence (P51532 whole entry): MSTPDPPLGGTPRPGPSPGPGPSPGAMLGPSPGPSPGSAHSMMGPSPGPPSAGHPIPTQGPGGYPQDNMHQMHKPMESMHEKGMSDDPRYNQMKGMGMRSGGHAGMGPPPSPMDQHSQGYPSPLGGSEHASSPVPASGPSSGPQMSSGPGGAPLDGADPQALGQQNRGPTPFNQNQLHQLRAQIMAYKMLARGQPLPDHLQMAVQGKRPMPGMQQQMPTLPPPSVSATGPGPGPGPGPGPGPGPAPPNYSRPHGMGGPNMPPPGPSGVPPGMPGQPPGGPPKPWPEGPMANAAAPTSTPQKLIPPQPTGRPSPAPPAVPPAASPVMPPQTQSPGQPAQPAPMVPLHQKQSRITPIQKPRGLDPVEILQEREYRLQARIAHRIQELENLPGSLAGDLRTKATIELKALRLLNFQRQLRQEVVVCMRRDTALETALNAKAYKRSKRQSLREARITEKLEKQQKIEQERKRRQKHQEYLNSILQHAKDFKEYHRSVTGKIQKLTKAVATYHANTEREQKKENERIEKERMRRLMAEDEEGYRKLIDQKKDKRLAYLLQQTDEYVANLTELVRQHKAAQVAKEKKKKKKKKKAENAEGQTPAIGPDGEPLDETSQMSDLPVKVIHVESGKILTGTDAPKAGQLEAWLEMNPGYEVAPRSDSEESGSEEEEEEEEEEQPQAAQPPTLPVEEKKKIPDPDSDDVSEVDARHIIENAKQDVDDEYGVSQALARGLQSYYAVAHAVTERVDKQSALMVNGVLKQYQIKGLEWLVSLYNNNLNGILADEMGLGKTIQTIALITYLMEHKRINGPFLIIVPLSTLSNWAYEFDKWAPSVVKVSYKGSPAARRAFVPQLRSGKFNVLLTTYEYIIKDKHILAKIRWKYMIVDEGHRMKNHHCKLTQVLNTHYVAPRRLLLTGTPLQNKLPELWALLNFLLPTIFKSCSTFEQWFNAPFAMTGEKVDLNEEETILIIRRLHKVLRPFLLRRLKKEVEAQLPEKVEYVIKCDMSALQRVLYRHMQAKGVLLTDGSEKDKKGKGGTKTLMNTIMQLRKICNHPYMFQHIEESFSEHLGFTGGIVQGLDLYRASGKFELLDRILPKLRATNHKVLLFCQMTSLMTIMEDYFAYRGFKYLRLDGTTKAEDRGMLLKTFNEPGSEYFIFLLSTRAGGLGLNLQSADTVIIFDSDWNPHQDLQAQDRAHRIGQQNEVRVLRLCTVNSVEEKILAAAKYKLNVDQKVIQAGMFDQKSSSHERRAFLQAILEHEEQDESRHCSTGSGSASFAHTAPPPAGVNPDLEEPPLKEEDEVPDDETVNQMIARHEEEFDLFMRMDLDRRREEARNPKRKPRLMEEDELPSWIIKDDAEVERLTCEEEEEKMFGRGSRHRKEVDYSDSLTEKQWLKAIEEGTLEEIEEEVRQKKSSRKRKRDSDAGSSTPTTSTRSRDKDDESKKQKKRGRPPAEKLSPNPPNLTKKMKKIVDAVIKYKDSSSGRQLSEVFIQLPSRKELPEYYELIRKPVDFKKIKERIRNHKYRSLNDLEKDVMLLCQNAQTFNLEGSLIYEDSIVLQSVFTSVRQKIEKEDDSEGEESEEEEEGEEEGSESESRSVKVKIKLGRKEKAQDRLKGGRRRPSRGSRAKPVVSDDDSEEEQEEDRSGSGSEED
# Experimental Protocol: SMARCA4 degradation assay (HiBiT-fusion HeLa cell line, 24 h, luminescence)
# Format: cell-based
Attribute Measured: DC50

Past entries and their recorded results:
> print(dat)
                                   molecule  attribute.measured  recorded.result
1  COCC#Cc1cc(N2CCN(c3cc(-c4ccccc4O)nnc3N)CC[C@H]2C)ccn1 [Compound P-398]                DC50   500 to 5000 nM
2  C[C@@H]1CCN(c2cc(-c3ccccc3O)nnc2N)CCN1c1ccnc(C#CCN2CC3CC(C2)O3)n1 [Compound P-179]                DC50     50 to 500 nM
3  C[C@@H]1CCN(c2cc(-c3ccccc3O)nnc2N)CCN1c1ccnc(C#CCN2CCCCC2)c1 [Compound P-425]                DC50          < 50 nM

Task: May I ask what DC50 has been recorded for C[C@@H]1CCN(c2cc(-c3ccccc3O)nnc2N)CCN1c1ccnc(C#CCN2CCOCC2)n1 [Compound P-334] ?
Result: 50 to 500 nM

Task: May I ask what DC50 has been recorded for C[C@@H]1CCN(c2cc(-c3ccccc3O)nnc2N)CCN1c1ccnc(/C=C/C2CC2)n1 [Compound P-171] ?
Result: 500 to 5000 nM

Task: May I ask what DC50 has been recorded for Nc1nnc(-c2ccccc2O)cc1N1C2CCC1CN(c1ccnc(C#CCn3ccnc3)n1)C2 [Compound P-284] ?
Result: 500 to 5000 nM

Task: May I ask what DC50 has been recorded for C[C@H]1CCN(c2cc(-c3ccccc3O)nnc2N)CCN1c1ccnc(C#CCN(C)CC(F)(F)F)n1 [Compound P-217] ?
Result: 50 to 500 nM

Task: May I ask what DC50 has been recorded for Nc1nnc(-c2ccccc2O)cc1N1CCN(c2ccnc(C#CCNC(=O)c3cc4ncccn4n3)n2)C2CC21 (stereo not drawn) [Compound P-28] ?
Result: < 50 nM

Task: May I ask what DC50 has been recorded for Nc1nnc(-c2ccccc2O)cc1N1CCCN(c2ccnc(C#CCn3ncc4ccncc43)n2)CC1 [Compound P-116] ?
Result: 50 to 500 nM

Task: May I ask what DC50 has been recorded for C[C@@H]1CCN(c2cc(-c3ccccc3O)nnc2N)CCN1c1ccnc(C#C[C@@H](O)C2CC2)n1 [Compound P-265] ?
Result: 50 to 500 nM

Task: May I ask what DC50 has been recorded for CCc1cc(C(=O)NCC#Cc2nccc(N3CCN(c4cc(-c5ccccc5O)nnc4N)CC3)n2)nn1C [Compound P-2] ?
Result: 50 to 500 nM

Task: May I ask what DC50 has been recorded for COCc1cc(N2CCCN(c3cc(-c4ccccc4O)nnc3N)CC2)nc(C#CCNC(=O)c2nn(C)c(C)c2C)n1 [Compound P-126] ?
Result: 50 to 500 nM

###

Reported values of inhibition at 1 µM for individual entries
# Experimental System: SMARCA4-HiBiT HeLa cells (protein which is expressed from the SMARCA4 gene) (Homo sapiens, UniProt P51532)
# Construct: protein which is expressed from the SMARCA2 and SMARCA4 genes; host or cells: HeLa (SMARCA4-HiBiT engineered line)
# Experimental Protocol: SMARCA4 degradation assay (HiBiT-fusion HeLa cell line, 24 h, luminescence)
# Assay type: cell-based
# Run Conditions: @ 1 μM
# Excerpt: SMARCA2 and SMARCA4 Degradation Assay Degradation of protein which is expressed from the SMARCA2 and SMARCA4 genes was monitored using engineered HiBiT-fusion HeLa cell lines from Promega. […] 24-hours post-treatment, protein levels were quantified with the addition of HiBiT lytic buffer, LgBiT protein, and HiBiT substrate, according to manufacturer's specifications. […]

Past entries and their recorded results:
> print(dat)
                                    molecule  attribute.measured  recorded.result
 1  Cc1oncc1C(=O)NCC#Cc1nccc(N2CCN(c3cc(-c4ccccc4O)nnc3N)CC2)n1 [Compound P-3]  inhibition at 1 µM        30 to 70%
 2  CC(C)(C)OC(=O)NCC#Cc1nccc(N2CCC(Oc3cc(-c4ccccc4O)nnc3N)CC2)n1 [Compound P-296]  inhibition at 1 µM        30 to 70%
 3  CC1(F)CCN(CC#Cc2nccc(N3CCC4(CC3)CCN(c3cc(-c5ccccc5O)nnc3N)C4)n2)C1 (stereo not drawn) [Compound P-195]  inhibition at 1 µM        30 to 70%
 4  C[C@H]1CCN(c2cc(-c3ccccc3O)nnc2N)CCN1c1ccnc(C#CCNC(=O)c2cnc3ccccc3n2)n1 [Compound P-101]  inhibition at 1 µM            > 70%
 5  Nc1nnc(-c2ccccc2O)cc1N1CCN(c2ccnc(C#CCNC(=O)c3cc4ccccc4[nH]3)n2)CC1 [Compound P-73]  inhibition at 1 µM        30 to 70%
 6  CN(C)CC#Cc1nccc(N2CC3CC(Oc4cc(-c5ccccc5O)nnc4N)CC3C2)n1 (stereo not drawn) [Compound P-222]  inhibition at 1 µM            > 70%
 7  Cc1ncsc1C(=O)NCC#Cc1nccc(N2CCN(c3cc(-c4ccccc4O)nnc3N)CC2)n1 [Compound P-62]  inhibition at 1 µM        30 to 70%
 8  Nc1nnc(-c2ccccc2O)cc1N1CCN(c2ccnc(C#CCNC(=O)c3nc4ccccc4s3)n2)CC1 [Compound P-118]  inhibition at 1 µM        30 to 70%
 9  Nc1nnc(-c2ccccc2O)cc1N1CC2CC1CN(c1ccnc(C#CCNC(=O)c3cc4ncccn4n3)n1)C2 (stereo not drawn) [Compound P-17]  inhibition at 1 µM        30 to 70%
10  CN(C)CC#Cc1nccc(N2C3CCC2CN(c2cc(-c4ccccc4O)nnc2N)C3)n1 [Compound P-134]  inhibition at 1 µM        30 to 70%

Task: May I ask what inhibition at 1 µM has been recorded for CC1CN(c2ccnc(C#CCNC(=O)c3cc4ncccn4n3)n2)CCN(c2cc(-c3ccccc3O)nnc2N)C1 (stereo not drawn) [Compound P-27] ?
Result: > 70%

Task: May I ask what inhibition at 1 µM has been recorded for C[C@@H]1CCN(c2cc(-c3ccccc3O)nnc2N)CCN1c1ccnc(C#CCN2CC3CC2C3)n1 [Compound P-234] ?
Result: 30 to 70%

Task: May I ask what inhibition at 1 µM has been recorded for Nc1nnc(-c2ccccc2O)cc1OC1CC2CN(c3ccnc(C#CCN4CCC4)n3)CC2C1 (stereo not drawn) [Compound P-197] ?
Result: 30 to 70%

Task: May I ask what inhibition at 1 µM has been recorded for CSCC#Cc1nccc(N2CCCN(c3cc(-c4ccccc4O)nnc3N)CC2)n1 [Compound P-323] ?
Result: 30 to 70%

Task: May I ask what inhibition at 1 µM has been recorded for Nc1nnc(-c2ccccc2O)cc1N1CCCN(c2ccnc(C#CCCNC(=O)c3cc4ncccn4n3)n2)CC1 [Compound P-23] ?
Result: 30 to 70%

Task: May I ask what inhibition at 1 µM has been recorded for Nc1nnc(-c2ccccc2O)cc1N1CCCN(c2ccnc(C#CCNC(=O)OCC(F)(F)F)n2)CC1 [Compound P-339] ?
Result: > 70%
